Overview of recorded log10 solubility for various molecules
METHOD DESCRIPTION: Compound solubility in water
Type: physicochemical
OBSERVATION TYPE: log10 solubility (log10 of the value in µg/mL)

>>> reported_value("Cc1cc(-c2ccccn2)nc2c(C(=O)NC(C)(C)C3CC3)ccn12")
-0.15
>>> reported_value("Cc1cc(-c2cccc(C(N)=O)c2)nc2c(C(=O)NC(C3CC3)C(F)(F)F)ccn12 (stereo not drawn)")
-0.40
>>> reported_value("CCCO[C@H]1CC[C@H](NC(=O)c2ccn3c(C)cc(-c4cccnc4)nc23)CC1")
1.17
>>> reported_value("Cc1cc(C)n2ccc(C(=O)NC(C3CC3)C(F)(F)F)c2n1 (stereo not drawn)")
0.49
>>> reported_value("Cc1cc(N2CCOCC2)nc2c(C(=O)NC(C)(C)C3CC3)ccn12")
1.15
>>> reported_value("CCOc1ccc(C(CC)NC(=O)c2ccn3c(C)cc(C)nc23)cc1F (stereo not drawn)")
-0.52

---

TARGET UNDER TEST: glucocerebrosidase (Gcase) (Homo sapiens, UniProt P04062)
METHOD DESCRIPTION: Glucocerebrosidase (Gcase) activation assay, 4-methylumbelliferyl-beta-D-glucopyranoside substrate, fluorescence
Assay type: biochemical
STATED CONDITIONS: 0.25 h, pH 4.7, test compound at 1.0 μM, 10 nM GCase, 100 nM saposin C, read-out: Percent Gcase Activation 1 μM Test Compound
Reported activation at 1 µM values for a set of molecules
OBSERVATION TYPE: activation at 1 µM

>>> reported_value("CCc1cc(C)n2ccc(C(=O)N[C@H]3CC[C@H](OC(C)(C)C)CC3)c2n1")
"> 60%"
>>> reported_value("Cc1cc(C)n2ccc(C(=O)NC(C)c3ccc4ccccc4c3)c2n1 (stereo not shown)")
"> 60%"
>>> reported_value("COc1ccccc1C(C)NC(=O)c1ccn2c(C)cc(C)nc12 (stereo not shown)")
"> 60%"
>>> reported_value("Cc1cc(C)n2ccc(C(=O)NC(C)c3cn(C)c4ccccc34)c2n1 (stereo not shown)")
"> 60%"
>>> reported_value("Cc1cc(C)n2ccc(C(=O)N[C@H](C)c3ccc(Cl)cc3)c2n1")
"> 60%"
>>> reported_value("Cc1cc(NC2CC3CCC(C2)O3)nc2c(C(=O)NC(C)(C)C3CC3)ccn12 (stereo not shown)")
"30 to 60%"
>>> reported_value("CCC(NC(=O)c1ccn2c(C)cc(C)nc12)c1ccc(F)cc1 (stereo not shown)")
"> 60%"
>>> reported_value("CCC(NC(=O)c1ccn2c(C)cc(C)nc12)c1cccc(Cl)c1 (stereo not shown)")
"> 60%"
>>> reported_value("C[C@H](NC(=O)c1ccn2c(C(F)F)cc(C(F)F)nc12)C1CC1")
"> 60%"
>>> reported_value("Cc1cc(C)n2ccc(C(=O)NC(C)c3cccc4ccccc34)c2n1 (stereo not shown)")
"> 60%"
>>> reported_value("CCC(NC(=O)c1ccn2c(C)cc(C)nc12)c1nc2ccccc2[nH]1 (stereo not shown)")
"< 30%"
>>> reported_value("CCc1ccc([C@@H](C)NC(=O)c2ccn3c(C)cc(C)nc23)cc1")
"> 60%"
>>> reported_value("CCOc1ccccc1C(C)NC(=O)c1ccn2c(C)cc(C)nc12 (stereo not shown)")
"> 60%"
>>> reported_value("Cc1cc(C)n2ccc(C(=O)NC(C3CC3)C(F)(F)F)c2n1 (stereo not shown)")
"> 60%"
>>> reported_value("Cc1cc(C)n2ccc(C(=O)N[C@@H](C)c3cccc(Cl)c3)c2n1")
"> 60%"
>>> reported_value("COCC(NC(=O)c1ccn2c(C)cc(C)nc12)C1CC1 (stereo not shown)")
"< 30%"

---

TARGET UNDER TEST: glucocerebrosidase (Gcase) (Homo sapiens, UniProt P04062)
METHOD DESCRIPTION: Glucocerebrosidase (Gcase) activation assay, 4-methylumbelliferyl-beta-D-glucopyranoside substrate, fluorescence
Assay type: biochemical
STATED CONDITIONS: 0.25 h, pH 4.7, test compound at 0.1 μM, 10 nM GCase, 100 nM saposin C, read-out: Percent Gcase Activation 0.1 μM Test Compound
OBSERVATION TYPE: activation at 0.1 µM

>>> reported_value("Cc1cc(C(F)F)nc2c(C(=O)N[C@H]3CC[C@H](OCC(C)(C)C)CC3)ccn12")
"> 20%"
>>> reported_value("CCc1cc(C)n2ccc(C(=O)N[C@H]3CC[C@H](OC(C)(C)C)CC3)c2n1")
"10 to 20%"
>>> reported_value("Cc1cc(C)n2ccc(C(=O)NC(CC(C)C)C3CC3)c2n1 (stereo not drawn)")
"> 20%"
>>> reported_value("Cc1cc(C)n2ccc(C(=O)N[C@@H](C)c3ccc(F)cc3)c2n1")
"> 20%"
>>> reported_value("Cc1cc(F)nc2c(C(=O)NC(C)(C)C3CC3)ccn12")
"10 to 20%"
>>> reported_value("Cc1cc(C)n2ccc(C(=O)NC(C)c3nc4ccccc4n3C)c2n1 (stereo not drawn)")
"< 10%"

---

# activation at 1 µM listing for each entry below
TARGET UNDER TEST: UniProtKB P04062
METHOD DESCRIPTION: Glucocerebrosidase (Gcase) activation assay, 4-methylumbelliferyl-beta-D-glucopyranoside substrate, fluorescence
Type: biochemical
STATED CONDITIONS: 0.25 h, pH 4.7, test compound at 1.0 μM, 10 nM GCase, 100 nM saposin C, read-out: Percent Gcase Activation 1 μM Test Compound
OBSERVATION TYPE: activation at 1 µM

>>> reported_value("CC(C)(NC(=O)c1ccn2ccc(-c3ccc(F)cc3)nc12)C1CC1 [III-46]")
"30 to 60%"
>>> reported_value("Cc1cc(C)n2ccc(C(=O)NC(C)C3CCCCC3)c2n1 (centres unmarked) [III-62]")
"> 60%"
>>> reported_value("Cc1cc(Cl)n2ccc(C(=O)NC(C)(C)C3CC3)c2n1 [III-12]")
"> 60%"
>>> reported_value("Cc1ccc(C(CO)NC(=O)c2ccn3c(C)cc(C)nc23)c(C)c1 (centres unmarked) [IV-91]")
"< 30%"
>>> reported_value("Cc1cc(C)n2ccc(C(=O)NC(CC3CCC3)c3ccccc3)c2n1 (centres unmarked) [IV-41]")
"> 60%"
>>> reported_value("CCn1c(C(C)NC(=O)c2ccn3c(C)cc(C)nc23)nc2c1CCCC2 (centres unmarked) [IV-106]")
"< 30%"
>>> reported_value("Cc1cc(C)n2ccc(C(=O)NC(C)c3ccc(-c4ccccc4)cc3)c2n1 (centres unmarked) [IV-77]")
"> 60%"
>>> reported_value("CCCCO[C@H]1CC[C@H](NC(=O)c2ccn3c(C)cc(C4CCOCC4)nc23)CC1 [III-32]")
"30 to 60%"

---

TARGET UNDER TEST: UniProtKB P04062
Sequence (P04062 40-536): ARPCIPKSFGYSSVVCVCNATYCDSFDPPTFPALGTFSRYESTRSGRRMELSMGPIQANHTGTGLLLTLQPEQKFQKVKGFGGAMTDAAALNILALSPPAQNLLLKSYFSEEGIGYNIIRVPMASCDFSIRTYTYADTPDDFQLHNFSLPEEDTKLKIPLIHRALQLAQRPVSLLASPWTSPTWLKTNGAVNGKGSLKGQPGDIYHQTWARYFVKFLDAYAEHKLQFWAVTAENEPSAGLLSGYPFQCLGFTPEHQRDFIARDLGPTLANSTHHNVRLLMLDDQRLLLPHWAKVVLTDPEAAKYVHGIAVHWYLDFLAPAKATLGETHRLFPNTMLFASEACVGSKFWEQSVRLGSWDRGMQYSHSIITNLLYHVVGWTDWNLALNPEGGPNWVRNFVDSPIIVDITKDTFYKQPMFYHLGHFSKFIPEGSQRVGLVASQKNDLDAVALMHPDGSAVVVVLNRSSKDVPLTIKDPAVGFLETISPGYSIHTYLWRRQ
METHOD DESCRIPTION: Glucocerebrosidase (Gcase) activation assay, 4-methylumbelliferyl-beta-D-glucopyranoside substrate, fluorescence
Assay type: biochemical
STATED CONDITIONS: 0.25 h, pH 4.7, test compound at 0.1 μM, 10 nM GCase, 100 nM saposin C, read-out: Percent Gcase Activation 0.1 μM Test Compound
OBSERVATION TYPE: activation at 0.1 µM

>>> reported_value("Cc1cc(C)n2ccc(C(=O)N[C@@H](C)c3cccc(Cl)c3)c2n1 [IV-28]")
"10 to 20%"
>>> reported_value("Cc1cc(C)n2ccc(C(=O)NC3(C4CC4)CC3)c2n1 [III-22]")
"10 to 20%"
>>> reported_value("CCC(NC(=O)c1ccn2c(C)cc(C)nc12)c1nc(C2CC2)no1 (stereo not drawn) [IV-58]")
"< 10%"
>>> reported_value("Cc1cc(C)n2ccc(C(=O)N[C@@H](C)C3CC3)c2n1 [III-64]")
"> 20%"
>>> reported_value("Cc1cc(C)n2ccc(C(=O)NC(Cc3ccccc3)c3ccccc3)c2n1 (stereo not drawn) [IV-81]")
"> 20%"
>>> reported_value("Cc1cc(C(F)F)n2ccc(C(=O)N[C@H]3CC[C@H](OC(C)(C)C)CC3)c2n1 [IV-8]")
"10 to 20%"
>>> reported_value("Cc1cc(C)n2ccc(C(=O)NC(C)C3CCCCC3)c2n1 (stereo not drawn) [III-62]")
"> 20%"
>>> reported_value("Cc1cc(C)n2ccc(C(=O)NC(C)c3nc4c(s3)CCCC4)c2n1 (stereo not drawn) [IV-64]")
"10 to 20%"
>>> reported_value("COc1ccccc1[C@@H](C)NC(=O)c1ccn2c(C)cc(C)nc12 [IV-29]")
"10 to 20%"
>>> reported_value("Cc1cc(C)n2cc(C3CC3)c(C(=O)NC(C)(C)C3CC3)c2n1 [III-25]")
"< 10%"
>>> reported_value("COc1cc(C)n2ccc(C(=O)NC(C)(C)C3CC3)c2n1 [III-13]")
"10 to 20%"
>>> reported_value("Cc1c(-c2ccc(F)cc2)cnc2c(C(=O)N[C@@H](C)C3CC3)ccn12 [III-51]")
"< 10%"
>>> reported_value("COc1ccc(C(C)NC(=O)c2ccn3c(C)cc(C)nc23)cc1F (stereo not drawn) [IV-61]")
"> 20%"
>>> reported_value("COCc1cc(C)n2ccc(C(=O)N[C@H]3CC[C@H](OCC(C)(C)C)CC3)c2n1 [IV-1]")
"> 20%"
>>> reported_value("COCc1cc(C)nc2c(C(=O)N[C@H]3CC[C@H](OCC(C)C)CC3)ccn12 [IV-3]")
"> 20%"

Source of measurements: patent US11124516B2
